# procedure details: Single dose oral pharmacokinetic study
# Format: in vivo, mice
# recorded conditions: mouse, plasma; Mice oral PK @30 mg/kg (Table 4)
readout type: AUC(0-t)

compound: CC1(C)C(C(=O)O)CC1C(=O)O[C@H]1CC[C@]2(C)[C@H]3CC[C@@H]4[C@H]5[C@H](C6(C)CC6)CC[C@]5(C(=O)N5CCC[C@H]5c5ncc(-c6ccccc6)[nH]5)CC[C@@]4(C)[C@]3(C)CC[C@H]2C1(C)C (some centres unmarked)
AUC(0-t): 294 µg·h/mL

In the following, a different compound is considered.
Recorded result, C=C(C)[C@@H]1CC[C@]2(C(=O)N3CCCC3c3ncc(-c4ccc(OC)cc4)[nH]3)CC[C@]3(C)[C@H](CC[C@@H]4[C@@]5(C)CC[C@H](OC(=O)[C@H]6C[C@@H](C(=O)O)C6(C)C)C(C)(C)[C@@H]5CC[C@]43C)[C@@H]12 (some centres unmarked) , AUC(0-t): 286 µg·h/mL

* * *

# key: entry, value: Cmax
# procedure details: Single dose oral pharmacokinetic study
# Type: in vivo, mice
# recorded conditions: mouse, plasma; Mice oral PK @30 mg/kg (Table 4)
Give the quantity in ng/mL, number only.

Please review the entries below; each comes with its answer.
compound: C=C(C)[C@@H]1CC[C@]2(C(=O)N3CCC[C@H]3c3ncc(-c4ccc(O)cc4)[nH]3)CC[C@]3(C)[C@H](CC[C@@H]4[C@@]5(C)CC[C@H](OC(=O)C6CC(C(=O)O)C6(C)C)C(C)(C)[C@@H]5CC[C@]43C)[C@@H]12 (some centres unmarked)
unit of measurement: ng/mL
Cmax: 10900
--
compound: CC(C)(CC(=O)O)CC(=O)O[C@H]1CC[C@]2(C)[C@H]3CC[C@@H]4[C@H]5[C@H](C6(C)CC6)CC[C@]5(C(=O)N5CCCC5c5ncc(-c6cccnc6)[nH]5)CC[C@@]4(C)[C@]3(C)CC[C@H]2C1(C)C (some centres unmarked)
unit of measurement: ng/mL
Cmax: 9300
--
compound: C=C(C)[C@@H]1CC[C@]2(C(=O)N3CCC[C@H]3c3ncc(-c4ccc(F)cc4)[nH]3)CC[C@]3(C)[C@H](CC[C@@H]4[C@@]5(C)CC[C@H](OC(=O)C6CC(C(=O)O)C6(C)C)C(C)(C)[C@@H]5CC[C@]43C)[C@@H]12 (some centres unmarked)
unit of measurement: ng/mL
Cmax: 16000
--
compound: CC1(C)C(C(=O)O)CC1C(=O)O[C@H]1CC[C@]2(C)[C@H]3CC[C@@H]4[C@H]5[C@H](C6(C)CC6)CC[C@]5(C(=O)N5CCC[C@H]5c5ncc(-c6ccc(F)cc6)[nH]5)CC[C@@]4(C)[C@]3(C)CC[C@H]2C1(C)C (some centres unmarked)
unit of measurement: ng/mL
Cmax: 9300
--
compound: C=C(C)[C@@H]1CC[C@]2(C(=O)N3CCC[C@H]3c3ncc(-c4ccc(F)cc4)[nH]3)CC[C@]3(C)[C@H](CC[C@@H]4[C@@]5(C)CC[C@H](OC(=O)CC(C)(C)C(=O)O)C(C)(C)[C@@H]5CC[C@]43C)[C@@H]12
unit of measurement: ng/mL
Cmax: 13300
--
compound: CC(C)(CC(=O)O[C@H]1CC[C@]2(C)[C@H]3CC[C@@H]4[C@H]5[C@H](C6(C)CC6)CC[C@]5(C(=O)N5CCC[C@H]5c5ncc(-c6ccc(F)cc6)[nH]5)CC[C@@]4(C)[C@]3(C)CC[C@H]2C1(C)C)C(=O)O
unit of measurement: ng/mL
Cmax: 4400
--
compound: CC(C)(CC(=O)O[C@H]1CC[C@]2(C)[C@H]3CC[C@@H]4[C@H]5[C@H](C6(C)CC6)CC[C@]5(C(=O)N5CCC[C@H]5c5ncc(-c6cccs6)[nH]5)CC[C@@]4(C)[C@]3(C)CC[C@H]2C1(C)C)C(=O)O
unit of measurement: ng/mL
Cmax: 7000

Recorded result, CC(C)(CC(=O)O[C@H]1CC[C@]2(C)[C@H]3CC[C@@H]4[C@H]5[C@H](C6(C)CC6)CC[C@]5(C(=O)N5CCC[C@H]5c5ncc(-c6cccnc6)[nH]5)CC[C@@]4(C)[C@]3(C)CC[C@H]2C1(C)C)C(=O)O , Cmax: 6400

* * *

# procedure details: Single dose oral pharmacokinetic study
# Format: in vivo, mice
# recorded conditions: mouse, plasma; Mice oral PK @30 mg/kg (Table 3)
readout type: Tmax (h)
Give the quantity in h, number only.

structure as smiles: CC(C)(CC(=O)O)CC(=O)O[C@H]1CC[C@]2(C)[C@H]3CC[C@@H]4[C@H]5[C@H](C6(C)CC6)CC[C@]5(C(=O)N5CCC[C@H]5c5ncc(-c6ccccc6)[nH]5)CC[C@@]4(C)[C@]3(C)CC[C@H]2C1(C)C
observed value: 4

Recorded result, C=C(C)[C@@H]1CC[C@]2(C(=O)N3CCC[C@H]3c3ncc(-c4ccccc4)[nH]3)CC[C@]3(C)[C@H](CC[C@@H]4[C@@]5(C)CC[C@H](OC(=O)CC(C)(C)C(=O)O)C(C)(C)[C@@H]5CC[C@]43C)[C@@H]12 , Tmax: 3.75

* * *

# procedure details: Single dose oral pharmacokinetic study
# Assay type: in vivo, mice
# recorded conditions: mouse, plasma; Mice oral PK @30 mg/kg (Table 3)
Is AUC(0-t) at least 70000 ng·h/mL? Then rule met. If not, rule not met.

Solved entries (count: 4):
structure as smiles: C=C(C)[C@@H]1CC[C@]2(C(=O)N3CCC[C@H]3c3ncc(-c4ccccc4)[nH]3)CC[C@]3(C)[C@H](CC[C@@H]4[C@@]5(C)CC[C@H](OC(=O)CC(C)(C)C(=O)O)C(C)(C)[C@@H]5CC[C@]43C)[C@@H]12
answer label: rule met

structure as smiles: C=C(C)[C@@H]1CC[C@]2(C(=O)N3CCC[C@H]3c3ncc(-c4ccccc4)[nH]3)CC[C@]3(C)[C@H](CC[C@@H]4[C@@]5(C)CC[C@H](OC(=O)CC(C)(C)CC(=O)O)C(C)(C)[C@@H]5CC[C@]43C)[C@@H]12
answer label: rule not met

structure as smiles: C=C(C)[C@@H]1CC[C@]2(C(=O)N3CCC[C@@H]3c3nc(-c4ccccc4)no3)CC[C@]3(C)[C@H](CC[C@@H]4[C@@]5(C)CC[C@H](OC(=O)CC(C)(C)C(=O)O)C(C)(C)[C@@H]5CC[C@]43C)[C@@H]12
answer label: rule met

structure as smiles: C=C(C)[C@@H]1CC[C@]2(C(=O)N3CCC[C@@H]3c3nc(-c4cccnc4)no3)CC[C@]3(C)[C@H](CC[C@@H]4[C@@]5(C)CC[C@H](OC(=O)CC(C)(C)C(=O)O)C(C)(C)[C@@H]5CC[C@]43C)[C@@H]12
answer label: rule not met

Okay, next one:
Say whether C=C(C)[C@@H]1CC[C@]2(C(=O)N3CCC[C@H]3c3ncc(-c4ccccc4)[nH]3)CC[C@]3(C)[C@H](CC[C@@H]4[C@@]5(C)CC[C@H](OC(=O)[C@H]6C[C@@H](C(=O)O)C6(C)C)C(C)(C)[C@@H]5CC[C@]43C)[C@@H]12 shows AUC(0-t) of 70000 ng·h/mL or more.
rule met

* * *

# key: entry, value: AUC(0-inf)
# procedure details: Single dose oral pharmacokinetic study
# Format: in vivo, mice
# recorded conditions: mouse, plasma; Mice oral PK @30 mg/kg (Table 4)

Please review the entries below; each comes with its answer.
compound: CC1(C)C(C(=O)O)CC1C(=O)O[C@H]1CC[C@]2(C)[C@H]3CC[C@@H]4[C@H]5[C@H](C6(C)CC6)CC[C@]5(C(=O)N5CCC[C@H]5c5ncc(-c6ccccc6)[nH]5)CC[C@@]4(C)[C@]3(C)CC[C@H]2C1(C)C (stereo partly shown)
AUC(0-inf): 776 µg·h/mL

compound: CC(C)(CC(=O)O[C@H]1CC[C@]2(C)[C@H]3CC[C@@H]4[C@H]5[C@H](C6(C)CC6)CC[C@]5(C(=O)N5CCC[C@H]5c5ncc(-c6ccc(F)cc6)[nH]5)CC[C@@]4(C)[C@]3(C)CC[C@H]2C1(C)C)C(=O)O
AUC(0-inf): 152 µg·h/mL

compound: C=C(C)[C@@H]1CC[C@]2(C(=O)N3CCCC3c3ncc(-c4ccc(OC)cc4)[nH]3)CC[C@]3(C)[C@H](CC[C@@H]4[C@@]5(C)CC[C@H](OC(=O)[C@H]6C[C@@H](C(=O)O)C6(C)C)C(C)(C)[C@@H]5CC[C@]43C)[C@@H]12 (stereo partly shown)
AUC(0-inf): 446 µg·h/mL

compound: C=C(C)[C@@H]1CC[C@]2(C(=O)N3CCC[C@H]3c3ncc(-c4ccc(F)cc4)[nH]3)CC[C@]3(C)[C@H](CC[C@@H]4[C@@]5(C)CC[C@H](OC(=O)C6CC(C(=O)O)C6(C)C)C(C)(C)[C@@H]5CC[C@]43C)[C@@H]12 (stereo partly shown)
AUC(0-inf): 655 µg·h/mL

compound: C=C(C)[C@@H]1CC[C@]2(C(=O)N3CCC[C@H]3c3ncc(-c4ccc(O)cc4)[nH]3)CC[C@]3(C)[C@H](CC[C@@H]4[C@@]5(C)CC[C@H](OC(=O)C6CC(C(=O)O)C6(C)C)C(C)(C)[C@@H]5CC[C@]43C)[C@@H]12 (stereo partly shown)
AUC(0-inf): 518 µg·h/mL

compound: CC1(C)C(C(=O)O)CC1C(=O)O[C@H]1CC[C@]2(C)[C@H]3CC[C@@H]4[C@H]5[C@H](C6(C)CC6)CC[C@]5(C(=O)N5CCC[C@H]5c5ncc(-c6ccc(F)cc6)[nH]5)CC[C@@]4(C)[C@]3(C)CC[C@H]2C1(C)C (stereo partly shown)
AUC(0-inf): 448 µg·h/mL

In the following, a different compound is considered.
Recorded result, C=C(C)[C@@H]1CC[C@]2(C(=O)N3CCC[C@H]3c3ncc(-c4ccccc4)[nH]3)CC[C@]3(C)[C@H](CC[C@@H]4[C@@]5(C)CC[C@H](OC(=O)[C@@H]6C[C@H](C(=O)O)C6(C)C)C(C)(C)[C@@H]5CC[C@]43C)[C@@H]12 , AUC(0-inf): 535 µg·h/mL
